test: Water-solubility test of compound in normal saline solution; format: physicochemical; settings: saline or isotonic, thermodynamic from solid, 0.5 mg in 1 ml normal saline solution, 42° C., precipitation or deposits
The compounds listed here are annotated with their solubility at 1 week.
MEASURED_ENDPOINT: solubility at 1 week

compound=CC1(C)C(/C=C/C=C/C=C/C=C2/N(CCCCS(=O)(=O)O)c3ccc4cc(S(=O)(=O)O)cc(S(=O)(=O)[O-])c4c3C2(C)C)=[N+](CCCCS(=O)(=O)O)c2ccc3cc(S(=O)(=O)O)cc(S(=O)(=O)O)c3c21 value_reported="> 500 µg/mL"
compound="CC12CCC(/C=C/C=C/C=C3\\CCC4(C)C3=[N+](CC(O)CS(=O)(=O)[O-])c3cccnc34)=C1N(CC(O)CS(=O)(=O)O)c1cccnc12 (stereo not shown)" value_reported="> 500 µg/mL"
compound="CC12CCC(/C=C/C=C/C3=CC(=C4\\CCC5(C)C4=[N+](CC(O)CS(=O)(=O)O)c4ccc(S(=O)(=O)[O-])cc45)/CCC3)=C1N(CC(O)CS(=O)(=O)O)c1ccc(S(=O)(=O)O)cc12 (stereo not shown)" value_reported="> 500 µg/mL"
compound=CC1(C)C(/C=C/C=C/C=C/C=C2/N(CCCCS(=O)(=O)[O-])c3ccc4ccccc4c3C2(C)C)=[N+](CCCCS(=O)(=O)[O-])c2ccc3ccccc3c21.[Na+] value_reported="< 500 µg/mL"
